Each record here notes measured IC50.
tgt: T1, TBD-1 wt (anti-TROP2 Fab, hRS7)
T1 construct: non-mutated Fab
experiment: competition ELISA, Fab on captured TROP2
quantity measured: IC50 (µM)

binder="VDFCYQYGWPICSRV (mask peptide for the TROP2 Fab) [Peptide-56]" units_symbol=µM test_result=10.1
binder="VDFCYMYKWPVCYP (mask peptide for the TROP2 Fab) [Peptide-48]" units_symbol=µM test_result=10
binder="VDFCYRYSWPVCWA (mask peptide for the TROP2 Fab) [Peptide-54]" units_symbol=µM test_result=27.1
binder="VDFCYKYNWPICSR (mask peptide for the TROP2 Fab) [Peptide-55]" units_symbol=µM test_result=4.39
binder="VDFCALYHWPICYQ (mask peptide for the TROP2 Fab) [Peptide-43]" units_symbol=µM test_result=0.27
binder="VDFCALYNWPVCAI (mask peptide for the TROP2 Fab) [Peptide-59]" units_symbol=µM test_result=3.49
binder="VEFCAIYSWPICKI (mask peptide for the TROP2 Fab) [Peptide-46]" units_symbol=µM test_result=5.14
binder="VDFCGLYHWPICYQV (mask peptide for the TROP2 Fab) [Peptide-51]" units_symbol=µM test_result=0.18
binder="VDFCAIYSWPICKI (mask peptide for the TROP2 Fab) [Peptide-50]" units_symbol=µM test_result=0.56
